Origin of measurements: patent US20240270821A1

ASSAYED SYSTEM: human glucagon receptor (human) (UniProt P47871)
Sequence (P47871 26-477): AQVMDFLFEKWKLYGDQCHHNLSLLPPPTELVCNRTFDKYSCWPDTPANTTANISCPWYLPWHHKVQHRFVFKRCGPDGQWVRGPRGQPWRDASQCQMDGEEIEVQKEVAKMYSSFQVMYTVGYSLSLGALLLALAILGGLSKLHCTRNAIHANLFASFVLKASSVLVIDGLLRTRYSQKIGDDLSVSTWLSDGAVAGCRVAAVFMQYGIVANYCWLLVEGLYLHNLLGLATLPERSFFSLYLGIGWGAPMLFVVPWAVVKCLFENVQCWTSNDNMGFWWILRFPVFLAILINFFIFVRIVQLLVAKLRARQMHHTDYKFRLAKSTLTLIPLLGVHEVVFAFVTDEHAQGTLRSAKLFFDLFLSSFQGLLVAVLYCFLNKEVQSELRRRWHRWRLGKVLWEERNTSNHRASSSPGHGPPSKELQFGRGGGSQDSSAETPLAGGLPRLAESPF
MEASUREMENT NOTES: cell-based or functional assay
Entries and their Relative cAMP EC50 values follow.
READOUT LABEL: Relative cAMP EC50 (nM)

BINDER	READOUT LABEL	REPORTED RESULT
YXQGTFTSDFSKXLDKKAQXAFIEYLIEXSPSSGAPPPSGS (synthetic construct; SITE 2: note = 2-Aminoisobutyric Acid; SITE 13: note = alpha-methyl-leucine; SITE 17: note = Lysine is chemically modified through conjugation of the epsilon-amino group of the Lysine side chain with (2-[2-(2-Amino-ethoxy)-ethoxy]-acetyl)-(gamma-Glu)-CO-(CH2) 16-CO2H; SITE 20: n) [Example 805]	Relative cAMP EC50	3.97
YXQGTFTSDFSKXLDKKAQXAFIEYLIEXGESSGAPPPSGE (Aib, αMeL, acylated Lys (AEEA-γGlu-C18 diacid), C-terminal amide; synthetic construct; SITE 2: note = 2-Aminoisobutyric Acid; SITE 13: note = alpha-methyl-leucine; SITE 17: note = Lysine is chemically modified through conjugation of the epsilon-amino group of the Lysine side chain with (2-[2-(2-Amino-ethoxy)-ethoxy]-acetyl)-(gamma-Glu)-CO-(CH2) 16-CO2H; SITE 20: n) [Example 217]	Relative cAMP EC50	5.11
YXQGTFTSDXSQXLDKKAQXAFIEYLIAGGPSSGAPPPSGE (Aib, 4Pal, αMeL, Me4Pal; acylated K; C-terminal amide; synthetic construct; SITE 2: note = 2-Aminoisobutyric Acid; SITE 10: note = 3-(4-Pyridyl)-L-alanine; SITE 13: note = alpha-methyl-leucine; SITE 17: note = Lysine is chemically modified through conjugation of the epsilon-amino group of the Lysine side chain with (Glu)-(gamma-Glu)-CO-(CH2)16-CO2H; SIT) [Example 1086]	Relative cAMP EC50	12
